Reported activity change, negative = inhibition by item:
Target: Guanidinoacetate N-methyltransferase (Homo sapiens) (UniProt Q14353)
Test: Confirmatory Screen for Target Class Profiling of Small Molecule Inhibitors of Methyltransferases (AID 1745852); also: % is scaled to controls: 0 for no effect and ±100 for the full control effect
Conditions: MTase-Glo luminescence, SAH detection, recombinant enzyme; at 57.3 µM (top of the series) unless noted
ENDPOINT LABEL: activity change, negative = inhibition (% [at 29.8 µM])

MOLECULE: COc1c2cc(c(O[C@@H]3O[C@H](CO)[C@@H](O)[C@H](O)[C@H]3O)c1OC)CCCCC(O)CCc1ccc(O)c-2c1 (some centres not stated)
ENDPOINT LABEL: activity change, negative = inhibition
MEASURED NUMBER: -7.96
//
MOLECULE: O=C(/C=C/c1ccccc1)OC[C@H]1O[C@@H](OC(=O)c2cc(O)c(O)c(O)c2)[C@H](O)[C@@H](O)[C@@H]1O
ENDPOINT LABEL: activity change, negative = inhibition
MEASURED NUMBER: -1.37
//
MOLECULE: C[C@@H]1O[C@@H](OC[C@H]2O[C@@H](OCc3ccccc3)[C@H](O)[C@@H](O)[C@@H]2O)[C@H](O)[C@H](O)[C@H]1O
ENDPOINT LABEL: activity change, negative = inhibition
MEASURED NUMBER: -3.1
//
MOLECULE: CC(C)(O)C1CC=C(C(=O)OC[C@H]2O[C@@H](OC(=O)C3=CCC(C(C)(C)O)CC3)[C@H](O)[C@@H](O)[C@@H]2O)CC1 (some centres not stated)
ENDPOINT LABEL: activity change, negative = inhibition
MEASURED NUMBER: -9.84
//
MOLECULE: COc1cc(/C=C/C(=O)OCC2OC(OC3(CO)OC(CO)C(O)C3O)C(O)C(O)C2O)ccc1O (configuration not stated)
ENDPOINT LABEL: activity change, negative = inhibition
MEASURED NUMBER: -1.33
//
MOLECULE: OC[C@H]1O[C@@H](OCCc2ccccc2)[C@H](O[C@@H]2OC[C@@H](O)[C@H](O)[C@H]2O)[C@@H](O)[C@@H]1O
ENDPOINT LABEL: activity change, negative = inhibition
MEASURED NUMBER: 0
//
MOLECULE: O=C(/C=C/c1ccc(O)cc1)OC[C@@]1(O)C=C[C@@H]2C(C(=O)O)=CO[C@@H](O[C@@H]3O[C@H](CO)[C@@H](O)[C@H](O)[C@H]3O)[C@@H]21
ENDPOINT LABEL: activity change, negative = inhibition
MEASURED NUMBER: 0.0203

----------
System: PA-1
Assay: Primary qHTS to identify gynecologic anti-cancer compounds using libraries of approved drugs and bioactive compounds (AID 1345084); also: % is scaled to controls: 0 for no effect and ±100 for the full control effect; nearly all actives have a fitted effect of over 55% in size
Settings: Gynecologic cancer cell panel viability, ATPlite luminescence, 48 h; series mostly up to 57.5 µM
Results filed as inconclusive are left out. Calls of active or inactive are those of the source. Calls come from the whole dose curve; as a rule, active = well fitted cell-killing curve with a large enough effect; inconclusive = small, poorly fitted or top-dose-only effect, or effect the other way; inactive = flat fitted curve, though single readings scatter.

MOLECULE: C=C1C(OC(C)=O)[C@@]23CCC4[C@](C)(C(=O)O)CCC[C@@]4(C)[C@]2(O)CC[C@H]1C3 (stereo partly drawn)
TGT: PA-1
activity change, negative = cytotoxicity: inactive

MOLECULE: N=C(N)c1ccc2nc(-c3cc(CC(=O)NC(CC(=O)O)C(=O)O)cc(-c4cc(S(N)(=O)=O)ccc4O)c3O)[nH]c2c1 (stereo not drawn)
TGT: PA-1
activity change, negative = cytotoxicity: inactive

MOLECULE: O=C(Nc1ccn(Cc2c(F)cccc2C(F)(F)F)n1)c1c(F)cccc1F
TGT: PA-1
activity change, negative = cytotoxicity: 10.8% [at 11.6 µM] (inactive)

MOLECULE: C=C1CC2C3(C)C(O)CC(=O)C(C)(C)C3C(O)C(OC(C)=O)C2(C)C2C(=O)OC(C)(C(=O)OC)C(=O)C12C (stereo not drawn)
TGT: PA-1
activity change, negative = cytotoxicity: inactive

MOLECULE: CC1=C2CC(O)(C(C)(C)O)C(O[C@@H]3O[C@H](CO)[C@@H](O)[C@H](O)[C@H]3O)CC(C)C2CC1=O (stereo partly drawn)
TGT: PA-1
activity change, negative = cytotoxicity: inactive

MOLECULE: C=C(C(=O)O)C1CC(O)C2(C)CCCC(C)(O)C2C1 (stereo not drawn)
TGT: PA-1
activity change, negative = cytotoxicity: inactive

MOLECULE: CC1=C2C[C@H]3OC(=O)[C@H](O)[C@@]4(O)[C@@H](C)[C@@H](O)[C@H](O)C([C@@]2(C)[C@H](O)[C@@H](O)C1)[C@@]34C (stereo partly drawn)
TGT: PA-1
activity change, negative = cytotoxicity: inactive

MOLECULE: C=C1CCC2(C(=O)OC3OC(CO)C(O)C(O)C3O)CCC3(C)C(=CCC4C5(C)CCC(OC6OC(CO)C(OC7OC(C)C(O)C(O)C7O)C(OC7OCC(O)C(O)C7O)C6O)C(C)(C)C5CCC43C)C2C1 (stereo not drawn)
TGT: PA-1
activity change, negative = cytotoxicity: 18.7% [at 11.6 µM] (inactive)
